# Test system: Plasmodium berghei
# MEASUREMENT_NOTES: Antimalarial activity against Plasmodium berghei ANKA infected Swiss CD1 mice (Mus musculus) assessed as reduction of parasitemia at 30 mg/kg, perorally administered after 3 hrs of infection for 3 days measured on day 4 relative to control
# Type: functional
# STUDY_CONDITIONS: route oral
RECORDED_ENDPOINT: inhibition in vivo at 30 mg/kg (%)
Answer in %, number only, no unit symbol.

Please give the measured inhibition in vivo at 30 mg/kg for this compound: C[C@H]1[C@H](c2ccc(CN3CCOCC3)[nH]2)O[C@@H]2O[C@@]3(C)CC[C@H]4[C@H](C)CC[C@@H]1[C@@]24OO3
100

For the compound C[C@H]1[C@H](c2ccc(CN3CCN(C)CC3)[nH]2)O[C@@H]2O[C@@]3(C)CC[C@H]4[C@H](C)CC[C@@H]1[C@@]24OO3 , what inhibition in vivo at 30 mg/kg is on record?
97.7

For the compound CC(C)N1CCN(Cc2ccc([C@@H]3O[C@@H]4O[C@@]5(C)CC[C@H]6[C@H](C)CC[C@@H]([C@H]3C)[C@@]46OO5)[nH]2)CC1 , what inhibition in vivo at 30 mg/kg is on record?
90.5

Need inhibition in vivo at 30 mg/kg of C[C@H]1[C@H](OC(=O)CCC(=O)O)O[C@@H]2O[C@@]3(C)CC[C@H]4[C@H](C)CC[C@@H]1[C@@]24OO3 [ARTESUNATE] , thanks.
100

====

# Test system: Plasmodium falciparum
# MEASUREMENT_NOTES: Antimalarial activity against chloroquine-sensitive Plasmodium falciparum 3D7 assessed as growth inhibition by [3H]hypoxanthine incorporation assay relative to artemisinin
# Assay type: functional
Kindly state Ratio IC50 for each of the entries shown.
// no unit string in output, number only

I would be grateful if you could share the reported Ratio IC50 for CC(C)N1CCN(Cc2ccc([C@@H]3O[C@@H]4O[C@@]5(C)CC[C@H]6[C@H](C)CC[C@@H]([C@H]3C)[C@@]46OO5)n2C)CC1 .
2.51

Need Ratio IC50 of C[C@H]1[C@H](c2ccc(CN3CCCCC3)[nH]2)O[C@@H]2O[C@@]3(C)CC[C@H]4[C@H](C)CC[C@@H]1[C@@]24OO3 , thanks.
0.22

// returns reported Ratio IC50 for input C[C@H]1[C@H](c2cccn2C)O[C@@H]2O[C@@]3(C)CC[C@H]4[C@H](C)CC[C@@H]1[C@@]24OO3
2.46

So what does the record say about Ratio IC50 for C[C@H]1[C@H](c2ccc[nH]2)O[C@@H]2O[C@@]3(C)CC[C@H]4[C@H](C)CC[C@@H]1[C@@]24OO3 ?
1.73

Consider the compound shown here: C[C@H]1[C@H](c2ccc(CN(C)C)n2C)O[C@@H]2O[C@@]3(C)CC[C@H]4[C@H](C)CC[C@@H]1[C@@]24OO3 What is its recorded Ratio IC50?
0.4

Please look up its Ratio IC50: C[C@H]1[C@H](c2ccc(CN3CCOCC3)[nH]2)O[C@@H]2O[C@@]3(C)CC[C@H]4[C@H](C)CC[C@@H]1[C@@]24OO3
2.84

====

Kindly supply the reported Ratio IC50 values for the records listed here.
# Tested on: Plasmodium falciparum
# MEASUREMENT_NOTES: Antimalarial activity against chloroquine-resistant Plasmodium falciparum K1 (Thailand) assessed as growth inhibition by [3H]hypoxanthine incorporation assay relative to artemisinin
# Format: functional
Give a plain numeric answer without units written out.

What value of measured Ratio IC50 is listed for CC(C)N1CCN(Cc2ccc([C@@H]3O[C@@H]4O[C@@]5(C)CC[C@H]6[C@H](C)CC[C@@H]([C@H]3C)[C@@]46OO5)[nH]2)CC1 ?
2.34

Fill blank: measured Ratio IC50 of the compound C[C@H]1[C@H](c2ccc(CN3CCOCC3)n2C)O[C@@H]2O[C@@]3(C)CC[C@H]4[C@H](C)CC[C@@H]1[C@@]24OO3 is ____.
4.32

Entry C[C@H]1[C@H](c2ccc(CN3CCC(N4CCCC4)CC3)n2C)O[C@@H]2O[C@@]3(C)CC[C@H]4[C@H](C)CC[C@@H]1[C@@]24OO3 has what Ratio IC50?
1.12
